System: Es-2
Test: Primary qHTS to identify gynecologic anti-cancer compounds using libraries of approved drugs and bioactive compounds (AID 1345084); further: nearly all actives have a fitted effect of over 55% in size
Settings: Gynecologic cancer cell panel viability, ATPlite luminescence, 48 h; series mostly up to 57.5 µM
Inconclusive results are not listed. Calls of active or inactive are those of the source. The call rests on the fitted dose curve; in most records, active means well fitted cell-killing curve with a large enough effect; inconclusive means small, poorly fitted or top-dose-only effect, or effect the other way; inactive means flat fitted curve, though single readings scatter.
Parameter call: string, one of active, inactive

molecule=Cn1ncc(Cl)c1-c1cc(C(=O)N[C@H](CN)Cc2ccc(F)c(F)c2)oc1Cl label_value=inactive
molecule=COc1cc2ncc(-c3ccccc3)nc2cc1OC label_value=inactive

Data request: Outcome logged for `CCN(CC)CCCCCCNc1cc(OC)cc2c(C)ccnc12` in this assay:
Data returned: inactive

Data request: Field entry: `Nc1nc2c(s1)CCN(Cc1ccc(Cl)cc1)CC2`
Data returned: inactive

Data request: CCCCNc1ncc(C(=O)NCc2ccc(-n3ccnc3)cc2)c(NC2CCC(O)CC2)n1 (centres undefined) ?
Data returned: inactive

====

Tested on: NIH3T3
Assay: Cytotoxic Profiling of Annotated Libraries Using Quantitative High-Throughput Screening (AID 1296008); further: nearly all actives have a fitted effect of over 60% in size; on max response: on the % scale 0 is the no-effect control and ±100 the full control effect
Details: Five cell lines viability, CellTiter-Glo ATP luminescence, 48-72 h; stronger effect = lower value
Inconclusive results are not listed.
Property: max response (%)
Quick reminder: number only, in %, skip the unit.

Record excerpt, results attached:
compound=C=C1C(=O)O[C@@H]2/C=C(/C)[C@@H](OC(C)=O)C/C=C(\C)C[C@@H](OC(=O)/C(=C/CO)CO)[C@@H]12 property="max response" numeric_result=0.581
compound=CCCC(CCC)C(=O)NCc1ccc2c(cnn2-c2ccccc2OC)c1 property="max response" numeric_result=0.011
compound=O=C(NS(=O)(=O)c1ccc(Br)s1)c1ccc(Cl)cc1Cl property="max response" numeric_result=-6.08
compound="O=C(c1ccc(F)cc1)N1CCCC(c2nc(-c3ccc(F)cc3)no2)C1 (centres undefined)" property="max response" numeric_result=-12.8
compound=C=C[C@]1(C)C[C@H](O)[C@H]2C(=C)C(=O)O[C@@H]2[C@H]1C(=C)CO property="max response" numeric_result=-30
compound=CCNC1(C(N)=O)CCN(c2ncnc3c2nc(-c2ccccc2Cl)n3-c2ccc(Cl)cc2)CC1 property="max response" numeric_result=-1.7
compound="CC1(C)CC[C@]2(C(=O)O)CC[C@]3(C)C(=CCC4[C@@]5(C)C[C@@H](O)[C@H](O)C(CO)(CO)C5CC[C@]43C)C2[C@@H]1O (some centres undefined)" property="max response" numeric_result=-1.94
compound="CC(O)(C(=O)C1CC1(CO)COC1OC(CO)C(O)C(O)C1O)C1C(O)CC2C3CC=C4CC(O)CC(O)C4(C)C3C(O)CC21C (centres undefined)" property="max response" numeric_result=0.504

Next compound, max response to be filled in.
Data request: Given the entry `COC(=O)c1ccc2c(c1)nc(NC(=O)c1ccccc1)n2CCCc1ccccc1` , report its measured max response.
Data returned: 1.52

====

Test system: Tov-21-G
Test: Primary qHTS to identify gynecologic anti-cancer compounds using libraries of approved drugs and bioactive compounds (AID 1345084); further: nearly all actives have a fitted effect of over 55% in size
Settings: Gynecologic cancer cell panel viability, ATPlite luminescence, 48 h; series mostly up to 57.5 µM
Inconclusive results are not listed. The source made the active and inactive calls. Calls come from the whole dose curve; as a rule, active = well fitted cell-killing curve with a large enough effect; inconclusive = small, poorly fitted or top-dose-only effect, or effect the other way; inactive = flat fitted curve, though single readings scatter.
# valid calls are 1.0 (active), 0.0 (inactive); nothing else

compound=COc1cc(C[C@H]2C(=O)OC[C@@H]2Cc2ccc(OC)c(OC)c2)ccc1O label_value=0.0
compound=C[C@@H](c1ccc2nccn2c1)n1nnc2ncc(-c3cnn(C)c3)nc21 label_value=0.0
compound=Cc1cc2c(N3CCCC3)nc(N3CCCC3)nc2n1C label_value=0.0
compound=CN(C)C(=O)Nc1cc(-c2ccccc2)ccc1N(C)C label_value=0.0
compound=CC(=O)OC[C@]12[C@H](OC(C)=O)C(=O)[C@@H]3[C@@H](O)[C@@]14O[C@@]3(C)COC(=O)c1cccnc1[C@@H](C)[C@H](C)C(=O)O[C@@H]([C@H](O)[C@@H]2OC(C)=O)[C@]4(C)O label_value=0.0
compound="Nc1nc(Nc2ccc3c(c2)CCC(N2CCCC2)CC3)nn1-c1cc2c(nn1)-c1ccccc1CCC2 (centres undefined)" label_value=1.0
compound=CC#CC(=O)Nc1ccc2ncnc(Nc3cccc(Br)c3)c2c1 label_value=1.0
compound=N#Cc1ccc2ncnc(NCCc3ccccc3)c2c1 label_value=0.0

Data request: // return assay outcome for `CC(/C=C/C(=O)NO)=C\[C@@H](C)C(=O)c1ccc(N(C)C)cc1`
Data returned: 1.0

====

Tested on: Zika virus NS2B-NS3 protease (linked construct)
Assay: Primary screen NINDS Rhodamine qHTS for Zika virus inhibitors (AID 1347160); further: nearly all actives have a fitted effect of over 55% in size
Settings: purified NS2B-NS3 protease, Rhodamine110 substrate fluorescence; series mostly up to 57.1 µM
Results filed as inconclusive are left out. The source made the active and inactive calls. Calls come from the whole dose curve; as a rule, active = well fitted inhibition curve with a large enough effect; inconclusive = small, poorly fitted or top-dose-only effect; inactive = no such curve, though single readings can be large or run the other way.
Outcome field: choose from y = active, n = inactive

Illustrative cases are given below, each with its answer.
molecule=COc1ccc(CN2CCN(CCCSc3cc(C(C)(C)C)c(O)c(C(C)(C)C)c3)CC2)c(OC)c1OC label_value=n
molecule=COc1cc(C(N)=O)nc(-c2ccccn2)c1O label_value=n
molecule=O=C(Cc1c(F)cccc1F)Nc1cc(OCc2ccc(Cl)cc2)ccn1 label_value=n
molecule=COc1ccccc1C(=O)Nc1cccc(NC(=O)c2cccc(C)c2)c1 label_value=n

Data request: # lookup: test call for C/C=C(\C)C(=O)OC1C=C(C)CC(OC(=O)c2ccc(O)cc2)C2C1(C)CCC2(O)C(C)C (stereo unspecified)
Data returned: n

Data request: Next: `CNCCN1CCC(c2cc(CN(C)C(=O)c3cccc(Oc4ccccc4)c3)ccn2)CC1`
Data returned: n

====

Tested on: CRL-7250
Assay: Cytotoxic Profiling of Annotated Libraries Using Quantitative High-Throughput Screening (AID 1296008); further: nearly all actives have a fitted effect of over 60% in size; further: potency means the concentration at half of the fitted maximal effect
Details: Five cell lines viability, CellTiter-Glo ATP luminescence, 48-72 h
Records with an inconclusive call do not appear. Activity calls are given as the source filed them. Calls come from the whole dose curve; as a rule, active = well fitted inhibition curve with a large enough effect; inconclusive = small, poorly fitted or top-dose-only effect; inactive = flat fitted curve, though single readings scatter.
Property: Potency

Worked examples follow.
compound=Cc1ccc(C(=O)Nc2ccc(CN3CCN(C)CC3)c(C(F)(F)F)c2)cc1C#Cc1cnc2[nH]ncc2c1 property=Potency result="0.058 µM (active)"
compound="CC(=O)O[C@@]12CO[C@@H]1C[C@H](O)[C@@]1(C)C(=O)[C@H](O)C3=C(C)[C@@H](OC(=O)[C@H](O)[C@@H](NC(=O)OC(C)(C)C)c4ccccc4)C[C@@](O)([C@@H](OC(=O)c4ccccc4)C12)C3(C)C (some centres not stated)" property=Potency result="0.005 µM (active)"
compound=CC(=O)C1=C(O)C=C2Oc3c(C(C)=O)c(O)c(C)c(O)c3[C@]2(C)C1=O property=Potency result=inactive
compound=Cc1ccc(C(C)C)c(O[C@@H]2O[C@H](CO)[C@@H](O)[C@H](O)[C@H]2O)c1 property=Potency result="16.1 µM (active)"

Data request: Consider the compound shown here: `CCCCc1ccc(NS(=O)(=O)c2ccc(F)cc2)cc1` What is its recorded Potency?
Data returned: inactive

Data request: Could you do the same for `CC(C)(C)OC(=O)c1ncn2c1C(C)(C)Nc1ccccc1-2` , please?
Data returned: inactive

Data request: Entry CCC(C)/C=C(C)/C=C/C1=CC2=C(Cl)C(=O)C(C)(OC(C)=O)C(=O)C2(O)C(OC)O1 (configuration not stated) please
Data returned: inactive

Data request: Next entry: C[C@H]1CC[C@@]2(OC1)O[C@H]1CC3C4CC[C@H]5C[C@@H](O)CC[C@]5(C)C4=CC(=O)[C@]3(C)[C@H]1[C@@H]2C (some centres not stated)
Data returned: inactive

Data request: Same question, `COc1cc(O)c2c(c1)/C=C/C[C@H](O)[C@H](O)C(=O)/C=C\C[C@H](C)OC2=O` this time
Data returned: 16.4 µM (active)

Data request: # repeat for CC[C@@H](C)Nc1cc(C(=O)NC2CC3CCC(C2)N3c2ccc(C(=O)C3CC3)cn2)c(C)cc1C(N)=O (some centres not stated)
Data returned: 0.259 µM (active)

Data request: Follow-up entry: `C=CCCN1CCC2(CC1)CN(C(=O)c1c(F)cccc1F)c1ccc(Cl)cc12`
Data returned: inactive

====

Test system: OV90
Experiment: Primary qHTS to identify gynecologic anti-cancer compounds using libraries of approved drugs and bioactive compounds (AID 1345084); further: nearly all actives have a fitted effect of over 55% in size
Details: Gynecologic cancer cell panel viability, ATPlite luminescence, 48 h; series mostly up to 57.5 µM
Source text: National Center for Advancing Translational Sciences [NCATS] Assay Overview: Chemotherapeutic drug responses vary from cancer to cancer and from patient to patient. […] ATPlite is a luminescence based assay reliant on the conversion of a luciferase substrate to light in the presence of ATP. As a cytotoxic compound will suppress growth and decrease the number of cells, the concentration of ATP will decrease, and less light signal will be detected in the well. […]
Inconclusive results are not listed. Active and inactive are the calls of the source. Calls follow the shape of the dose curve; as a rule, active = well fitted cell-killing curve with a large enough effect; inconclusive = small, poorly fitted or top-dose-only effect, or effect the other way; inactive = flat fitted curve, though single readings scatter.
Respond using exactly one of the listed classes: YES (active), NO (inactive)

Some solved entries appear below for comparison.
compound="CC(=O)O[C@H]1[C@H](O)C[C@@]2(C)C(CC[C@]3(C)C2CC=C2C4CC(C)(C)CC[C@]4(C(=O)O)CC[C@]23C)C1(C)C (some centres not stated)" label_value=NO
compound=O=c1[nH]c2cccc(N3CCN(Cc4ccc(-c5ccccc5)cc4)CC3)c2o1 label_value=NO
compound=O=C(NO)c1cnc(N2CCN(S(=O)(=O)c3ccc4ccccc4c3)CC2)nc1 label_value=YES
compound=CCc1c(Cl)c(O)c(Cl)c(O)c1C(=O)O[C@H]1[C@H](O)[C@H](OC)[C@H](OC/C2=C\C=C\C[C@H](O)/C(C)=C\[C@H](CC)[C@@H](O[C@@H]3OC(C)(C)[C@@H](OC(=O)C(C)C)[C@H](O)[C@@H]3O)/C(C)=C/C(C)=C/C[C@@H]([C@@H](C)O)OC2=O)O[C@@H]1C label_value=NO
compound="CC12CCC3C1C(c1c(cc(O)c(C(=O)c4ccccc4)c1O)O2)C3(C)C (configuration not stated)" label_value=NO

Data request: Status in this test for CN(CC1COCCO1)S(=O)(=O)Nc1ccc2ccc3ncc(-c4cnn(C)c4)cc3c(=O)c2c1 (configuration not stated) ?
Data returned: NO

Data request: How about CC(=O)O[C@@H]1C[C@@]2(C)C(CC[C@]3(C)C2CC=C2C4CC(C)(C)CC[C@]4(C(=O)O)CC[C@]23C)C(C)(C)[C@H]1O (some centres not stated) ?
Data returned: NO
